# System: OVCAR-4
# TEST PROTOCOL: NCI tumour cell line growth inhibition, 48 h
Activity calls are given as the source filed them. Cut-off read from the data, not from the text of the source: active = GI50 up to about 1.1 µM and inactive = higher.
Could you please pick one outcome from this set? Y (active), N (inactive)

Known results for molecules:
{"MOLECULE": "COc1nc(-c2cn(S(=O)(=O)c3ccc(C)cc3)c3ccc(Br)cc23)cc(C(F)(F)F)c1C#N", "LABEL VALUE": "N"}
{"MOLECULE": "C[C@@H]1C[C@@H]2C(=O)N(c3ccccc3)C(=O)[C@@H]2c2[nH]c3ccc(Br)cc3c21", "LABEL VALUE": "N"}
{"MOLECULE": "CC(=O)Nc1ccc(OC/C(N)=N/NC(=O)c2ccncc2)cc1", "LABEL VALUE": "N"}
{"MOLECULE": "COP(=O)(OC)/C(=C\\c1cn(C(c2ccccc2)(c2ccccc2)c2ccccc2)cn1)NC(C)=O", "LABEL VALUE": "N"}
{"MOLECULE": "CCN(CC)CCn1ncc2ccc3c(c(=O)c4cccnc4n3CCN(CC)CC)c21", "LABEL VALUE": "Y"}

Incoming: Test call for this molecule, please: CC12C/C(=C\c3ccccc3)C(=O)C3C1CCCC32
Outgoing: N

Incoming: Test call for this molecule, please: COc1ccc(CC2c3c(cc(OC)c(OC)c3OC)CCN2C)cc1OC (stereo not given)
Outgoing: N

Incoming: Test call for this molecule, please: CS(=O)(=O)OCCCCOS(=O)(=O)CF
Outgoing: N

Incoming: Test call for this molecule, please: O=C(NNC(=O)c1ccccc1Cl)c1ccccc1O
Outgoing: N

Incoming: Test call for this molecule, please: CC12CCC(=O)N1c1cncnc1N2 (stereo not given)
Outgoing: N
